Catalogue of Population Normal (%) readings, one per entry.
tested on: HEK-293T; assay: Multiplex assay against HEK293T; format: toxicity, cell-based; details: human, 48 h, 1 µM, compound concentration 1 uM, replicate 2
Quick note: give the figure in %, leave out the unit.

As a guide, the following entries are already answered.
compound	measuredAttribute	recordedResult
Cl.O=C(O)c1cc(-c2ccc(C3CCNCC3)cc2)c2ccc(-c3ccc(C(F)(F)F)cc3)cc2c1	Population Normal (%)	97
O=c1cc(N2CCOCC2)oc2c(-c3cccc4c3sc3ccccc34)cccc12	Population Normal (%)	96
Cc1ccc2c(c1)c1c(n2CCc2ccc(C)nc2)CCN(C)C1 [LATREPIRDINE]	Population Normal (%)	96
Cc1cccc(CN2CCN(C(c3ccccc3)c3ccc(Cl)cc3)CC2)c1.Cl.Cl (configuration not stated)	Population Normal (%)	95
COc1cc(Nc2nccc(-c3cnn4nc(OC)ccc34)n2)cc(C(F)(F)F)c1	Population Normal (%)	96
CCCSc1nc(N[C@@H]2C[C@H]2c2ccc(F)c(F)c2)c2nnn([C@@H]3C[C@H](OCCO)[C@@H](O)[C@H]3O)c2n1 [TICAGRELOR]	Population Normal (%)	95

Attention now shifts to the item below.
Fetch value of Population Normal (%) on HEK-293T for "CC(C)OC(=O)N1CCC(Oc2ncnc3c2cnn3-c2ccc(S(C)(=O)=O)cc2F)CC1" .
96
